# assayed-target: tau (Homo sapiens, UniProt P10636)
# Sequence (P10636 623-695 limits assumed): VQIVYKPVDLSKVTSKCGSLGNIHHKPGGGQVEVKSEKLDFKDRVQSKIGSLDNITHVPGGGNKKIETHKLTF
# experiment-description: MCE Phenols Library screening, tau biosensor cell seeding assay (AvZ)
# Format: cell-based
# assay-setup: average of raw data 1 and 2
Exercise: state measured av puncta for each of the compounds provided.
Give bare numbers.

A selection of reference data follows.
>>> numeric_result("O=c1c(-c2ccc(O)cc2)coc2cc(O[C@@H]3O[C@H](CO)[C@@H](O)[C@H](O)[C@H]3O)cc(O)c12")
24334.9
>>> numeric_result("O=C(/C=C/c1ccc(O)c(O)c1)O[C@@H]1C[C@](O)(C(=O)O)C[C@@H](O)[C@H]1O")
19631.7
>>> numeric_result("O=C(O)c1c(O)cccc1O [2,6-Dihydroxybenzoic acid]")
27508.9
>>> numeric_result("OC[C@H]1O[C@@H](Oc2ccc(O)cc2)[C@H](O)[C@@H](O)[C@@H]1O [Arbutin]")
17341.3

Field: av puncta. Fill in for each record below.
1. COc1ccc(-c2coc3cc(O)ccc3c2=O)cc1O
2. COc1ccc(-c2cc(=O)c3c(O)cc(O)c(-c4cc(-c5cc(=O)c6c(O)cc(OC)cc6o5)ccc4OC)c3o2)cc1
3. COc1ccc(O)cc1
4. COc1ccc(-c2cc(=O)c3c(O)c(OC)c(O)cc3o2)cc1OC
5. CC(=O)c1c(O)c(C)c(O)c(Cc2c(O)c3c(c(C(=O)/C=C/c4ccccc4)c2O)OC(C)(C)C=C3)c1O

Result:
1. 19046
2. 23005
3. 22646.3
4. 24597.1
5. 27122.4

----------
# assayed-target: tau (Homo sapiens, UniProt P10636)
# experiment-description: MCE Phenols Library screening, tau biosensor cell seeding assay (AvZ)
# Type: cell-based
# assay-setup: Z score, replicate 1
Each record is given met if its reported Z repl 1 is strictly below -0.4. Records at or above -0.4 are given not met.

>>> label("CN(C)[C@@H]1C(O)=C(C(N)=O)C(=O)[C@@]2(O)C(O)=C3C(=O)c4c(O)cccc4[C@@](C)(O)[C@H]3C[C@@H]12.Cl [Tetracycline (hydrochloride)]")
"not met"

Problem: Criterion: Z repl 1 strictly below -0.4. Is it met by COc1cc(/C=C/C(=O)O)ccc1O [Ferulic acid] ?
Result: met

Problem: Does the reported Z repl 1 of the following molecule sit strictly below -0.4? C=C(C)[C@H](CC=C(C)C)Cc1c(O)cc(O)c2c1O[C@H](c1ccccc1O)CC2=O [Kushenol A]
Result: not met

Problem: Below -0.4 on Z repl 1? Entry COc1cc(/C=C/c2ccc(O)cc2)cc(OC)c1 [Pterostilbene]
Result: met

Problem: Answer whether the molecule N#CCc1ccc(O)cc1 [4-Hydroxybenzyl cyanide] has Z repl 1 strictly less than -0.4
Result: not met

Problem: Quick check: does O=C(O[C@@H]1O[C@@H]2COC(=O)c3cc(O)c(O)c(O)c3-c3c(cc(O)c(O)c3O)C(=O)O[C@H]([C@H]1O)[C@@H]2O)c1cc(O)c(O)c(O)c1 [Corilagin] have Z repl 1 under -0.4?
Result: met

Problem: Find out if reported Z repl 1 for COc1cc(C(C)=O)ccc1O [Apocynin] is less than -0.4
Result: met

Problem: Take the molecule O=c1c(O)c(-c2ccc(O)c(O)c2)oc2cc(O)c(O)c(O)c12 [Quercetagetin] and say whether its Z repl 1 is less than -0.4.
Result: met

Problem: For the molecule O=c1cc(-c2ccc(O)c(O)c2)oc2cc(O[C@@H]3O[C@H](CO)[C@@H](O)[C@H](O)[C@H]3O)c(O)c(O)c12 [6-Hydroxyluteolin 7-glucoside] , is Z repl 1 under -0.4?
Result: not met

Problem: Dear colleague, could you confirm whether Z repl 1 of COc1cc2c(cc1O)-c1c(OC)c(O)cc3c1[C@H](C2)NCC3 [Laetanine] falls below -0.4? Thanks.
Result: met

Problem: For COc1cc2oc(-c3ccccc3)cc(=O)c2c(O)c1OC [Mosloflavone] , is the recorded Z repl 1 below the cut-off of -0.4?
Result: not met

Problem: Strictly below -0.4 in Z repl 1? C[C@@H]1CC(=O)c2c(ccc3c2C(=O)c2cccc(O)c2C3=O)C1 [Ochromycinone]
Result: met

Problem: Answer whether the molecule O=c1cc(-c2ccccc2)oc2cc(O[C@@H]3O[C@H](CO[C@@H]4O[C@H](CO)[C@@H](O)[C@H](O)[C@H]4O)[C@@H](O)[C@H](O)[C@H]3O)c(O)c(O)c12 [Oroxin B] has Z repl 1 strictly less than -0.4
Result: not met

Problem: Confirm or reject: Z repl 1 of O=C(CCc1ccc(O)cc1)c1c(O)cc(O)cc1O [Phloretin] lies strictly below -0.4
Result: met

Problem: For COC(=O)/C=C/c1ccc(O)c(O)c1 [Methyl caffeate] , is the recorded Z repl 1 below the cut-off of -0.4?
Result: met

Problem: Here's an entry: O=C1C[C@@H](c2ccc(O)cc2)Oc2cc(O[C@@H]3O[C@H](CO)[C@@H](O)[C@H](O)[C@H]3O)ccc21 [Neoliquiritin] . Is its Z repl 1 below -0.4?
Result: not met
